Attribution: patent US20090325884A1

# Test system: human sera
# runDescription: ELISA: binding of biotinylated collagen peptides to human sera
# cond: number of the 81 control sera
Where no end group is shown, it is not given here. [ ]: non-standard residue; d: D form. Cit = NC(=O)NCCC[C@H](N)C(=O)O

inputSequence: LAGQXGIVGLP (LAGQ[Cit]GIVGLP; also: biotinylated (site not given here)) [CC3 Citrulline peptide]
testedSystem: human sera
Controls over mean + 2 SD number: 2/81
--
inputSequence: EKAHDGGRYYXA (EKAHDGGRYY[Cit]A; also: biotinylated, site not given here)
testedSystem: human sera
Controls over mean + 2 SD number: 2/81
--
inputSequence: EKAHDGGRYYRA (also: biotinylated, site not given here; listed as Homo sapiens) [C-telopeptide of α1(I) Arginine peptide, synthetic C-telopeptide of the α1 chain of human type I collagen]
testedSystem: human sera
Controls over mean + 2 SD number: 4/81
--
inputSequence: YDFGYDGDFYXA (YDFGYDGDFY[Cit]A; also: biotinylated (site not given here))
testedSystem: human sera
Controls over mean + 2 SD number: 3/81
--
inputSequence: GPMGPXGPPGPA (GPMGP[Cit]GPPGPA; also: biotinylated (site not given here)) [CC4 Citrulline peptide]
testedSystem: human sera
Controls over mean + 2 SD number: 2/81
--
inputSequence: GPMGPXGPPGPA [CC4 Arginine peptide] (GPMGPRGPPGPA; also: biotinylated, site not given here) [type II collagen peptide, arginine residue 28]
testedSystem: human sera
Controls over mean + 2 SD number: 3/81
--
inputSequence: EKGPDPLQYMXA (EKGPDPLQYM[Cit]A; also: biotinylated, site not given here) [CC1 Citrulline peptide]
testedSystem: human sera
Controls over mean + 2 SD number: 2/81
--
inputSequence: EKGPDPLQYMRA (listed as Homo sapiens) [CC1 Arginine peptide, C-telopeptide of the α1 chain of type II collagen]
testedSystem: human sera
Controls over mean + 2 SD number: 2/81
--
inputSequence: SAFAGLGPXEKGPD [CC2 Arginine peptide]
testedSystem: human sera
Controls over mean + 2 SD number: 3/81
--
inputSequence: SAFAGLGPXEKGPD (SAFAGLGP[Cit]EKGPD; also: biotinylated (site not given here)) [CC2 Citrulline peptide]
testedSystem: human sera
Controls over mean + 2 SD number: 1/81

###

# Test system: human sera
# runDescription: ELISA: binding of biotinylated collagen peptides to human sera
# cond: 81 sera from healthy controls; read at 450 nm
# Description: The serum samples from 120 patients with RA were obtained from the Division of Rheumatology of Oulu University Hospital. The controls consisted of 81 sera from healthy people matched for age and sex. Six pairs of biotinylated peptides were synthesised by NeoMPS (Strasbourg, France). […] FIGS. 1A-C show the localization of the peptides CC1-CC4 in type II collagen and their sequences; the numbers in brackets refer to arginine residues: CC1 (1059), CC2 (1048), CC3 (799) and CC4 (28). […]
Where no end group is shown, it is not given here. [ ]: non-standard residue; d: D form. Cit = NC(=O)NCCC[C@H](N)C(=O)O
measurementKind: Controls mean ± SD absorbance

inputSequence: LAGQXGIVGLP [CC3 Arginine peptide]
result: 0.182 ± 0.073

inputSequence: GPMGPXGPPGPA (GPMGP[Cit]GPPGPA; also: biotinylated (site not given here)) [CC4 Citrulline peptide]
result: 0.184 ± 0.071

inputSequence: EKGPDPLQYMRA (listed as Homo sapiens) [CC1 Arginine peptide, C-telopeptide of the α1 chain of type II collagen]
result: 0.181 ± 0.077

inputSequence: GPMGPXGPPGPA [CC4 Arginine peptide] (GPMGPRGPPGPA; also: biotinylated, site not given here) [type II collagen peptide, arginine residue 28]
result: 0.179 ± 0.070

inputSequence: EKGPDPLQYMXA (EKGPDPLQYM[Cit]A; also: biotinylated, site not given here) [CC1 Citrulline peptide]
result: 0.155 ± 0.065
